Biological target: SHP2-C SH2;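 also: peptide library displayed on the E. coli surface as eCPX fusions, selected cells deep-sequenced, score is each peptide's frequency after selection divided by its frequency in the input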
Assay: SH2 binding enrichment of the phosphorylated peptide, bacterial display (enrichment ratio); higher = better substrate or ligand; peptides without Tyr show the background
endpoint.label: SH2 binding enrichment

MSRDVYSIDYY [NTRK2_Y702_T704I] : 0.804
SDPIVYTLENI [EMR1_Y534_I533V] : 0.709
PIQLFYTRRNT [GHR_Y86] : 0.594
MALDIYRASFF [ALK_Y1278_R1275L_YF] : 0.768
MKALGYFAVVT [OPA1_Y498] : 0.752
VKFLGYPPPEI [KDR_Y357_A352V_YF] : 0.852
TQPSPYAVFRF [RPGRIP1_Y823_YF] : 1.1
GNFSGYDDAWD [POLR1C_Y36_YF] : 0.592
GLAKEYTDPET [CSNK1G2_Y195_I196T] : 0.671
IVRSLYEDVED [VHL_Y185_L188V] : 0.63

[1] ETKTPYTVILI [SBDS_Y128_R126T]
[2] GDEEDYEEIPG [EGFR_opt_E_2015]
Exercise: Between item 1 and item 2 , which reported SH2 binding enrichment is smaller? Selection: enter the item's label.
Solution: 2
(2: 0.624, 1: 2.27)

---

Biological target: Fes (UniProt P07332)
Sequence (P07332 whole entry, looked up): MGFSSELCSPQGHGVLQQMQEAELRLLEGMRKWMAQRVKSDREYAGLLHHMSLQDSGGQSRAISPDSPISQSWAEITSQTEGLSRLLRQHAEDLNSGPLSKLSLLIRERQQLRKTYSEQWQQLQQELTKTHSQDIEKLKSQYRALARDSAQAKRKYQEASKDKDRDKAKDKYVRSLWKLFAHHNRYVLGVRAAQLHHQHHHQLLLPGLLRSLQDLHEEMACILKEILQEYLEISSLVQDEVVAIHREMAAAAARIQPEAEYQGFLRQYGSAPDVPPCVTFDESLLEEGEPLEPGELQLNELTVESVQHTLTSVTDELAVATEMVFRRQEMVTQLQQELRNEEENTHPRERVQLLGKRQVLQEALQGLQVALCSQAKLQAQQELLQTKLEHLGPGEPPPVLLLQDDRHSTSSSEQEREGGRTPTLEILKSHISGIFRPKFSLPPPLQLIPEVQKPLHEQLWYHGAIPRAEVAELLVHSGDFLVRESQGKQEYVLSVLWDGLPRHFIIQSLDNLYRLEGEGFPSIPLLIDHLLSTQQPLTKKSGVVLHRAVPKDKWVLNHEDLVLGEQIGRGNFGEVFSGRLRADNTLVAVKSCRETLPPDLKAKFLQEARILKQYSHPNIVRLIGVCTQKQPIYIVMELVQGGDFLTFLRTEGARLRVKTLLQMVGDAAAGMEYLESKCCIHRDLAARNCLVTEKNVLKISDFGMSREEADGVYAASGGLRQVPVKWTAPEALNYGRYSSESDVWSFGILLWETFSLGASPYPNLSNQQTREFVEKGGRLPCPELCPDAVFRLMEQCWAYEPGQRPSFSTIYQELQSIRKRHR
Test: phosphorylation enrichment, bacterial display (enrichment ratio); higher = better substrate or ligand; peptides without Tyr show the background
phosphorylation enrichment overview
Form: value (number only, do not type unit).

Exercise: What does the record list as phosphorylation enrichment for STTIHYNYMCN [TP53_Y234_C229S] ?
Solution: 1.14

---

Tested on: AncSZ
Test: phosphorylation enrichment, bacterial display (enrichment ratio); higher = better substrate or ligand; peptides without Tyr show the background
phosphorylation enrichment overview
Form: value (number only, do not type unit).

// below: answered sequences
LGGSPYPGVPV [FGFR1_Y701] : 0.591
WKEIEYEVVPD [CPS1_Y634_R638P] : 1.43
VKPENYRRPDI [VHL_Y175_L178P] : 0.566
KSSDVYVSFDC [SORL1_Y136_Y141C_YF] : 1.44
LGKGSYAKVKS [TSSK2_Y23] : 0.884

Exercise: What does the record list as phosphorylation enrichment for PEVSGYCHFAD [TG_Y234_C237Y_YF] ?
Solution: 1.29

Exercise: What does the record list as phosphorylation enrichment for TTGGFYSFGGG [KRT24_Y120_A115T_YF] ?
Solution: 0.623

Exercise: What does the record list as phosphorylation enrichment for HGEAFYSEVKP [PAK5_Y182_YF] ?
Solution: 1

Exercise: What does the record list as phosphorylation enrichment for CHKRTYKVTGL ?
Solution: 0.587

Exercise: What does the record list as phosphorylation enrichment for IEKLPYIDKWF [CPS1_Y872_T871P] ?
Solution: 0.953

Exercise: What does the record list as phosphorylation enrichment for SRGSSYSSIPK [FLNC_Y2625] ?
Solution: 0.474

Exercise: What does the record list as phosphorylation enrichment for GFEVVYMTEPI [HSP90AB1_Y512] ?
Solution: 1.37

Exercise: What does the record list as phosphorylation enrichment for FDEFRYRSFIK [CFTR_Y517_V520F_YF] ?
Solution: 0.775

Exercise: What does the record list as phosphorylation enrichment for AVLSLYASGCT [ACTA2_Y145_R149C] ?
Solution: 1.2

Exercise: What does the record list as phosphorylation enrichment for PFIDSYEKDVA [PGM1_Y521_L516P_YF] ?
Solution: 1.07

Exercise: What does the record list as phosphorylation enrichment for STEAIYRRYSK [SH3PXD2B_Y42] ?
Solution: 0.511

Exercise: What does the record list as phosphorylation enrichment for ESAAIYNPVIF [RHO_Y301_K296E_YF] ?
Solution: 1.03

Exercise: What does the record list as phosphorylation enrichment for EWCSPYGLTPR [GRIN3B_Y601_R598C] ?
Solution: 0.815

Exercise: What does the record list as phosphorylation enrichment for QDIMAYRGREV [BCL6_Y157] ?
Solution: 1.1

Exercise: What does the record list as phosphorylation enrichment for PFADPYFDFEI [ZC3H18_Y371_YF] ?
Solution: 1.48

Exercise: What does the record list as phosphorylation enrichment for DDDPEYRKFLE [UPF3B_Y160] ?
Solution: 1.32

Exercise: What does the record list as phosphorylation enrichment for GTQCSYLLSRK [UGT3A1_Y123] ?
Solution: 0.634
